System: FMOC02_3 (patient-derived low-grade serous ovarian cancer cells)
Experiment: drug sensitivity score (DSS3, normalised partial AUC of % inhibition dose-response) (DSS (score)); higher = more sensitive (stronger inhibition of viability); extreme values may be limits of the assay
Conditions: 72 h; library: FO5A; assay format: 2D, 384-well, CellTiter-Glo
The entries below come with measured drug sensitivity score values attached.
REPORTED_METRIC: drug sensitivity score

MOLECULE	MEASURED_ON	ASSAY_VALUE
CN1CCC(CNc2ccc3ncc(-c4cccc(OC(F)(F)F)c4)n3n2)CC1	FMOC02_3	8.8
Nc1cc(F)ccc1NC(=O)c1ccc(CNC(=O)/C=C/c2cccnc2)cc1	FMOC02_3	5.5
CO[C@H]1C(=O)[C@]2(C)[C@@H](OC)C[C@H]3OC[C@@]3(OC(C)=O)[C@H]2[C@H](OC(=O)c2ccccc2)[C@]2(O)C[C@H](OC(=O)[C@H](O)[C@@H](NC(=O)OC(C)(C)C)c3ccccc3)C(C)=C1C2(C)C	FMOC02_3	19.9
O=C(NC1CCNCC1)c1n[nH]cc1NC(=O)c1c(Cl)cccc1Cl	FMOC02_3	22.1
CC/C(=C(\c1ccc(O)cc1)c1ccc(OCCN(C)C)cc1)c1ccccc1 [4-hydroxytamoxifen]	FMOC02_3	6.4
CCNC(=O)CCC/C=C\C[C@@H]1[C@@H](/C=C/[C@@H](O)CCc2ccccc2)[C@H](O)C[C@@H]1O	FMOC02_3	0
CC(C)[C@H](C(=O)Nc1ccc(C(=O)NO)cc1)c1ccccc1	FMOC02_3	8.8
CN1CCN(C2CCN(C(=O)Nc3cc(Oc4ccc(NC(=O)C5(C(=O)Nc6ccc(F)cc6)CC5)c(F)c4)ccn3)CC2)CC1	FMOC02_3	2.2

###

Tested on: FMOC02_1 (patient-derived low-grade serous ovarian cancer cells)
Assay: drug sensitivity score (DSS3, normalised partial AUC of % inhibition dose-response) (DSS (score)); higher = more sensitive (stronger inhibition of viability); extreme values may be limits of the assay
Conditions: 72 h; library: FO5A; assay format: 2D, 384-well, CellTiter-Glo

COMPOUND	drug sensitivity score
COCC[n+]1c2c(n(Cc3cnccn3)c1C)C(=O)c1ccccc1C2=O [Sepantronium bromide]	38.4
FC(F)(F)c1ccc(CNc2ccc(Cc3c[nH]c4ncc(Cl)cc34)cn2)cn1 [Pexidartinib]	3.9
Cc1ccc(-n2nc(C(C)(C)C)cc2NC(=O)Nc2ccc(OCCN3CCOCC3)c3ccccc23)cc1 [Doramapimod]	0.1
O=C1CCC(N2C(=O)c3ccccc3C2=O)C(=O)N1 (stereo not drawn) [Thalidomide]	0
O=c1ncn2nc(Sc3ccc(F)cc3F)ccc2c1-c1c(Cl)cccc1Cl [Neflamapimod]	0
Cc1c(N)nc([C@H](CC(N)=O)NC[C@H](N)C(N)=O)nc1C(=O)N[C@H](C(=O)N[C@H](C)[C@@H](O)[C@H](C)C(=O)N[C@H](C(=O)NCCc1nc(-c2nc(C(=O)NCCC[S+](C)C)cs2)cs1)[C@@H](C)O)[C@@H](OC1OC(CO)C(O)C(O)C1OC1OC(CO)C(O)C(OC(N)=O)C1O)c1cnc[nH]1 (stereo partly drawn) [Bleomycin]	3.1
Cc1cc(F)c(C(=O)Nc2cccc(-c3nncn3C(C)C)n2)cc1-n1cnc(C2CC2)c1 [Selonsertib]	0
NC(=O)NO [Hydroxyurea]	5.2
Oc1ncnc2[nH]ncc12 [Allopurinol]	0
CCC1(c2ccc(N)cc2)CCC(=O)NC1=O (stereo not drawn) [Aminoglutethimide]	0
C=CC[C@@H]1/C=C(\C)C[C@H](C)C[C@H](OC)[C@H]2O[C@@](O)(C(=O)C(=O)N3CCCC[C@H]3C(=O)O[C@H](/C(C)=C/[C@@H]3CC[C@@H](O)[C@H](OC)C3)[C@H](C)[C@@H](O)CC1=O)[C@H](C)C[C@@H]2OC [Tacrolimus]	0.4
CC1(C)C(C(=O)Nc2ccc(S(=O)(=O)c3ccc(NC(=O)C4C(C)(C)C4(C)C)cc3)cc2)C1(C)C [BRD7116]	0
CC[C@H](Nc1ncnc2[nH]cnc12)c1nc2cccc(F)c2c(=O)n1-c1ccccc1 [Idelalisib]	2.3
COc1cc2nccc(Oc3ccc(NC(=O)Nc4cc(C)on4)c(Cl)c3)c2cc1OC [Tivozanib]	5
CN(C)CCCOc1ccc(-c2ccc3ncc4c(c3c2)n(C2CCOCC2)c(=O)n4C)cn1 [AZD0156]	5.3
C[C@H]1C[C@@H]2[C@H]([C@@H](O)C[C@@]3(C)[C@H]2CC[C@]3(O)C(=O)CO)[C@@]2(C)C=CC(=O)C=C12 [Methylprednisolone]	0
Cc1cc(Nc2nc(N[C@@H](C)c3ncc(F)cn3)ncc2Cl)[nH]n1 [AZD1480]	0.8
COc1cc2c(Oc3ccc4[nH]c(C)cc4c3F)ncnc2cc1OCCCN1CCCC1 [Cediranib]	1.1
CCCCOc1nc(N)c2c(n1)N(Cc1cccc(CN3CCCC3)c1)CC(=O)N2 [Vesatolimod]	0
Cc1ccc(F)c(NC(=O)Nc2ccc(-c3cccc4[nH]nc(N)c34)cc2)c1 [Linifanib]	0
CNCc1ccc(-c2[nH]c3cc(F)cc4c3c2CCNC4=O)cc1 [Rucaparib]	2.1
O=C(Nc1nc2cccc(-c3ccc(CN4CCS(=O)(=O)CC4)cc3)n2n1)C1CC1 [Filgotinib]	2.6
Nc1nc(Nc2ccc3c(c2)CC[C@@H](N2CCCC2)CC3)nn1-c1cc2c(nn1)-c1ccccc1CCC2 [BGB324]	7.2
NCCNc1ccc(NCCN)c2c1C(=O)c1ccncc1C2=O [Pixantrone]	0
Nc1nc(OCc2cc(Br)cs2)c2[nH]cnc2n1 [Lomeguatrib]	0
COc1cc2c(cc1OCCCN1CCCC1)N=C(N)C21CCC1 [A-366]	3.9
C[C@@H]1C=C2C(=O)O[C@@H]3CC[C@H](C1)[C@]23O [Galiellalactone]	5.9
C[C@H]1Oc2cc(cnc2N)-c2c(nn(C)c2C#N)CN(C)C(=O)c2ccc(F)cc21	0.8
Cc1cn(-c2cc(NC(=O)c3ccc(C)c(Nc4nccc(-c5cnccn5)n4)c3)cc(C(F)(F)F)c2)cn1 [Radotinib]	0
C[C@@H](Oc1ccc2[nH]nc(/C=C/c3cnn(CCO)c3)c2c1)c1c(Cl)cncc1Cl	6.3
Cc1ccc(Nc2nccc(N(C)c3ccc4c(C)n(C)nc4c3)n2)cc1S(N)(=O)=O [Pazopanib]	1.3
C[C@H](Nc1ncnc2[nH]cnc12)c1cc2ccc(F)cc2nc1-c1ccccn1 [AMG319]	0
CC[C@H](C)C(=O)O[C@H]1C[C@H](O)C=C2C=C[C@H](C)[C@H](CC[C@@H](O)C[C@@H](O)CC(=O)O)[C@H]21 [Pravastatin]	0
